Molecular target: T1, human αvβ3 integrin ITGAVB3 (human, UniProt P06756 31-992; P05106 27-718, limits assumed)
T1 construct: Recombinant heterodimer used as immunogen, ELISA coating and SPR ligand; also called A5B3; A5b3
T1 sequence (P06756 31-992 limits assumed, chain 1 of 2): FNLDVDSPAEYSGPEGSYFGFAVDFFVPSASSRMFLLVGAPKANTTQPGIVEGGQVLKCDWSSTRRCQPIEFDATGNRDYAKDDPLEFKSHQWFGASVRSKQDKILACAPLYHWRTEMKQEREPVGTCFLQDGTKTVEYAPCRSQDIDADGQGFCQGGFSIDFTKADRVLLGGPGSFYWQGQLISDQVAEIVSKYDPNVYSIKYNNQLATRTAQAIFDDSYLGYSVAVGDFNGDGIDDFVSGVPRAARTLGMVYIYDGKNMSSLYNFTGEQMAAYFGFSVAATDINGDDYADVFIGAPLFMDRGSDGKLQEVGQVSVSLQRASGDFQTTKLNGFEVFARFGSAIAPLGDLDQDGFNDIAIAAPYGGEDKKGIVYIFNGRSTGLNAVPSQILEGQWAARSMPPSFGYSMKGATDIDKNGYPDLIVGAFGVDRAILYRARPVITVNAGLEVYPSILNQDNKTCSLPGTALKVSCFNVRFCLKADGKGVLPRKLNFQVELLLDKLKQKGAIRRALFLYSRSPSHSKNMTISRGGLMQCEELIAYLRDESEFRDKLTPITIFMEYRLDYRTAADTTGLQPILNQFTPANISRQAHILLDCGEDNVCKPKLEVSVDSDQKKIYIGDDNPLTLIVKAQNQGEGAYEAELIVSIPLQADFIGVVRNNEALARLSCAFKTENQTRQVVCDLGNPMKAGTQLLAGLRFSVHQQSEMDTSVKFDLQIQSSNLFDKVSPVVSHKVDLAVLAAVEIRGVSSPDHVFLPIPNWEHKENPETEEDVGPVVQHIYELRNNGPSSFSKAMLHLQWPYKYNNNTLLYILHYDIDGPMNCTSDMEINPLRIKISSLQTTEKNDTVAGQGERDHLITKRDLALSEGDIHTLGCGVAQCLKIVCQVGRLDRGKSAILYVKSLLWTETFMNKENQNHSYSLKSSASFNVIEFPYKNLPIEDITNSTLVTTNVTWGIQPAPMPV
T1 sequence (P05106 27-718 limits assumed, chain 2 of 2): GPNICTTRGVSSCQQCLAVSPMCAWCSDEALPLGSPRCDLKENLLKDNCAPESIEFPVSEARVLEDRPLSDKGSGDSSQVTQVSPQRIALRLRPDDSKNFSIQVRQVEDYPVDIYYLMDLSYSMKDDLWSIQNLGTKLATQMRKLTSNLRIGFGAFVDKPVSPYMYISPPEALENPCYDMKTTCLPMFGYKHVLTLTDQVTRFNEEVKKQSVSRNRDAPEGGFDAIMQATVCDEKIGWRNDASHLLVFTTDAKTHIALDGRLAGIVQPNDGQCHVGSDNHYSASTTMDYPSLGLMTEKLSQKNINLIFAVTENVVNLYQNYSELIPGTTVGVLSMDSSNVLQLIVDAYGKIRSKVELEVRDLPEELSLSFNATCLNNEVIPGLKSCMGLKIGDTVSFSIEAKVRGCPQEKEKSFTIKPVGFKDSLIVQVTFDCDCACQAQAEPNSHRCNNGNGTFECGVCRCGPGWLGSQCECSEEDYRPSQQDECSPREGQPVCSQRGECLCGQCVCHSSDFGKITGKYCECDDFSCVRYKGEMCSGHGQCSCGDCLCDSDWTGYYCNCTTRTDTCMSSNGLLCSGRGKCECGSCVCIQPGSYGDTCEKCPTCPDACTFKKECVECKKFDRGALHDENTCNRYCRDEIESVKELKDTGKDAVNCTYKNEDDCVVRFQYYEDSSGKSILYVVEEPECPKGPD
Assay: ELISA of soluble VHH (TG1 lysate), induced at 30 C, coated ITGAVB3
assay endpoint: OD490
Give only the figure.

Look over these answered cases.
[[record]]
binder = "VHH-20 (VHH, also called clone 20) VHH: DVQLVESGGGSVQPGGSLRLSCAASGYTVDNSCMAWFRQAPGKEREVVATIVTNNATSTFYADSVKGRFTVSHDNAKNTLNLQMNTLEPEDTAMYYCAADTKWIVCSRGYRYTPNWANHFNYWGQGTLVTVSS"
assay_endpoint = "OD490"
numeric_result = 0.129

[[record]]
binder = "VHH-23 (VHH, also called clone 23) VHH: HVQLVESGGGSVQTGGSLRLSCAASGYTSSTVYMAWFRQTPGKQREGVAAIYTGGGPTYYADSVKGRFTISQDNAKNTVYLQMNTLKPEDTAMYYCAADRYVYRLVTNWYRPSFYTYWGQGTQVTVSS"
assay_endpoint = "OD490"
numeric_result = 0.179


Record VHH-17 (VHH, also called clone 17) VHH: DVQLVESGGGSVQPGESLRLSCVASGYTVSSSCMAWFRQAPGKEREVVATIVVTSDTTSTFYADSVKGRFTISPDNAKNTLNLQMNSLEPSDTAMYYCAADRKWNVCSRGYRYTPNWANQFTFWGQGTLVTVSS . Reported OD490: 0.243

// OD490 value for VHH-22 (VHH, also called clone 22) VHH: QVQLVESGGGSVQAGGSLRLSCVVSGYTCSVYDMIWYRQPPGKEREFVSLINSNGRTTYADSVKGRFTISQNNAKNTVYLQMNSLKPEDTAMYYCHAACYSPSRLNYWGQGTLVTVSS : 1.98

For record VHH-13 (VHH, also called clone 13) VHH: HVQLVESGGGSVQPGESLRLSCVASGYTVSSSCMAWFRQAPGKEREVVATIVVTSDTTSTFYADSVKGRFTISPDNAKNTLNLQMNSLEPSDTAMYYCAADRKWNVCSRGYRYTPNWANQFTFWGQGTQVTVSS the listed OD490 is 2

binder VHH-15 (VHH, also called clone 15) VHH: EVQLVESGGGSVQPGESLRLSCVASGYTVSSSCMAWFRQAPGKEREVVATIVVTSDTTSTFYADSVKGRFTISPDNAKNTLNLQMNSLEPPDTAMYYCAADRKWNVCSRGYRYTPNWANQFTFWGQGTQVTVSS , OD490 observed: 0.179
